Known T/C of a selection of compounds
system: CD2F1 mice, L1210 leukemia ip, survival T/C; assay: NCI In Vivo Anticancer Drug Screen. Data for tumor model L1210 Leukemia (intraperitoneal) in CD2F1 (CDF1) mice; conditions: endpoint: mean survival time; dose: 100.0 mg/kg/injection; schedule: Q01DX001 (ip); vehicle: saline with Tween-80; higher = longer survival
Toxic doses and inconclusive results are not listed.

{"smi": "CCCCCCCCCC/C(C)=N/Nc1ccc([N+](=O)[O-])cc1[N+](=O)[O-]", "study.target": "CD2F1 mice, L1210 leukemia ip, survival T/C", "T/C": "94 % of control"}
{"smi": "Cc1[nH]c(=S)[nH]c(=O)c1CCO", "study.target": "CD2F1 mice, L1210 leukemia ip, survival T/C", "T/C": "105 % of control"}
{"smi": "CC(C)C(=O)Nc1cccc(OC(=O)NC(C)(C)C)c1", "study.target": "CD2F1 mice, L1210 leukemia ip, survival T/C", "T/C": "94 % of control"}
{"smi": "Nc1nc(-c2cccc([N+](=O)[O-])c2)c(N=Nc2ccccc2[N+](=O)[O-])s1", "study.target": "CD2F1 mice, L1210 leukemia ip, survival T/C", "T/C": "96 % of control"}
{"smi": "CCC(=O)OCCNc1cc(C(N)=O)c([N+](=O)[O-])cc1[N+](=O)[O-]", "study.target": "CD2F1 mice, L1210 leukemia ip, survival T/C", "T/C": "105 % of control"}
